# Tested on: HT29 colon
# ASSAY_SUMMARY: NCI tumour cell line growth inhibition, 48 h; in the data active = GI50 below about 0.43 µM; inactive = the rest
The categories you may choose from are yes (1) (active), no (0) (inactive)

Please review the entries below; each comes with its answer.
COMPOUND	EXPERIMENTAL_TARGET	CLASSIFICATION
CC(=O)Nc1cc2c3c(cccc3c1)-c1ccccc1-2	HT29 colon	no (0)
O=C(NN1C(=O)CSC1c1c(Cl)cccc1Cl)C(O)c1ccccc1 (stereo not given)	HT29 colon	no (0)
O=C(CCN1CCCN(c2cnc3ccccc3n2)CC1)c1csc2ccccc12	HT29 colon	no (0)
CCN(CC)CC(O)c1cc(-c2ccc(Cl)cc2)nc2c(C)c(Cl)ccc12 (stereo not given)	HT29 colon	no (0)
Cc1c(C(=O)c2ccccc2)[n+](=O)c2cc(F)c(F)cc2n1[O-]	HT29 colon	no (0)

Outcome? `CC(=O)ON=C1C=CC(=C(C#N)c2ccccc2)C=C1` no (0)

Outcome? O=c1/c(=C\c2ccc(Br)cc2)sc2n1C(c1ccc(Br)cc1)C1=C(N=2)c2ccc3ccccc3c2OCC1 (stereo not given) no (0)

Outcome? `COc1ncc(-c2ccc3nccc(C#CCCCCC(=O)NO)c3c2)cc1NS(=O)(=O)c1ccc(F)cc1F` yes (1)

Outcome? Nc1n[nH]c2ccc([C@@H]3Nc4ccc5cn[nH]c5c4[C@H]4C5CCC(C5)[C@@H]34)cc12 (stereo not given in full) yes (1)

Outcome? `COC(=O)c1cccc(NC(=O)c2ccc(NC3=C(Cl)C(=O)N(Cc4ccccc4)C3=O)cc2)c1` no (0)

---

# Tested on: SF-539 CNS
# ASSAY_SUMMARY: NCI tumour cell line growth inhibition, 48 h
// TGI lookup, one value per entry
The figure you give is taken to be in µM; do not add the unit.

MOLECULE	RECORDED_METRIC	OBSERVED_MEASUREMENT
COC(=O)[C@]12CC[C@@H](C)[C@H](C)[C@@H]1C1=CC[C@@H]3[C@@](C)(CC#N)C4=C(C[C@@]3(C)[C@]1(C)CC2)OC[C@]4(C)C=O	TGI	16.6
CC[C@@H](C)/C=C(C)/C=C/C(=O)c1c(O)c(-c2ccc(O)cc2)cn(OC2CC(=O)CCC(C)OC(=O)CC2O)c1=O (stereo not given in full)	TGI	3.84
c1ccc2c(c1)-c1ccccc1C2NC1=NCCO1	TGI	49.6
C=C(C)COc1cc(NC(=S)OC(C)C)ccc1Cl	TGI	30
Cn1cnc(C(=N)[Se])c1N	TGI	4.18

For the molecule `O=C(Nc1cccc(-n2cc(-c3ccncc3)c(-c3ccc(Cl)c(O)c3)n2)c1)Nc1ccc(Cl)c(Cl)c1` , report TGI. 8.97

For the molecule `COc1ncc(-c2ccc3nccc(C#CCCCCC(=O)NO)c3c2)cc1NS(=O)(=O)c1ccc(F)cc1F` , report TGI. 1.34

For the molecule `O=C(CCN1CCCN(c2cnc3ccccc3n2)CC1)c1csc2ccccc12` , report TGI. 33.2

For the molecule `CC[C@@]1(O)C(=O)OCc2c1cc1n(c2=O)Cc2c-1nc1cc(F)c(C)c3c1c2[C@@H](NC(=O)CO)CC3` , report TGI. 0.0404

For the molecule `COC(=O)c1c2c(c(C)[n+]([O-])c1C)C(=O)C(NCc1ccc(O)cc1)=CC2=O` , report TGI. 3.07

For the molecule `CC(C)C(/C=C/c1ccc(Cl)cc1)=N\NC(=O)N/N=C(/C=C/c1ccc(Cl)cc1)C(C)C` , report TGI. 31.2

---

// TGI lookup, one value per entry
# Test system: NCI/ADR-RES ovarian
# ASSAY_SUMMARY: NCI tumour cell line growth inhibition, 48 h
The figure you give is taken to be in µM; do not add the unit.

Take a look at these entries with their results.
STRUCTURE_SMILES_STRING	RECORDED_METRIC	UNIT_LABEL	OBSERVED_MEASUREMENT
N=c1oc2cc(O)ccc2cc1C(=O)Nc1cccc2ccccc12	TGI	µM	4.43
COC(=O)c1cccc(NC(=O)c2ccc(NC3=C(Cl)C(=O)N(Cc4ccccc4)C3=O)cc2)c1	TGI	µM	37.6
COc1cc2c(cc1[N+](=O)[O-])C(=O)C(Br)(Br)CCC2	TGI	µM	7.31
O=C(NC(OCc1ccccc1)(C(F)(F)F)C(F)(F)F)OCc1ccccc1	TGI	µM	26.3
COc1cc2c(cc1-c1coc3cc(O)ccc3c1=O)OCO2	TGI	µM	48.4

For the molecule `COC(=O)c1c2c(c(C)[n+]([O-])c1C)C(=O)C(NCc1ccc(O)cc1)=CC2=O` , report TGI. 6.37

For the molecule `O=C(CN1CCN(C(=O)c2ccco2)CC1)Nc1ccc(Cl)cc1C(=O)c1ccccc1Cl` , report TGI. 43.8

For the molecule `COc1ccc(/C=C/C(=O)CCN2CCN(CCC(=O)/C=C/c3ccc(OC)cc3)CC2)cc1` , report TGI. 96

For the molecule `CCCCOC(=O)c1c(C)[nH]c(/C=C2\N=C(c3ccc[nH]3)C=C2OC)c1C` , report TGI. 2.92

---

# Test system: HL-60(TB) leukemia
# ASSAY_SUMMARY: NCI tumour cell line growth inhibition, 48 h
Please use 1 (yes) whenever TGI is not below 5 µM, and 0 (no) whenever it is.

Please review the entries below; each comes with its answer.
COMPOUND	EXPERIMENTAL_TARGET	CLASSIFICATION
CCCCCCCCCCCCCCCC(=O)OC1C(O)C(O)C(O)C(O)C12CO2 (stereo not given)	HL-60(TB) leukemia	1 (yes)
Cc1cc(=O)oc2c(C)c3oc(CBr)cc3cc12	HL-60(TB) leukemia	1 (yes)
O=C(/C=C/C=C/c1ccc2c(c1)OCO2)N/N=C\c1ccc(O)cc1O	HL-60(TB) leukemia	1 (yes)
O=C(Nc1cccc(-n2cc(-c3ccncc3)c(-c3ccc(Cl)c(O)c3)n2)c1)Nc1ccc(Cl)c(Cl)c1	HL-60(TB) leukemia	1 (yes)
Cc1cc(-c2cc(OC(=O)c3ccccc3)ccc2Cl)cc2nnc(Nc3ccc(OCCN4CCCC4)cc3)nc12	HL-60(TB) leukemia	0 (no)

Reported TGI at or above 5 µM? `COc1ncc(-c2ccc3nccc(C#CCCCCC(=O)NO)c3c2)cc1NS(=O)(=O)c1ccc(F)cc1F` 0 (no)

Reported TGI at or above 5 µM? `COc1ccc(C=O)cc1OS(=O)(=O)C(F)(F)C(F)(F)C(F)(F)C(F)(F)F` 1 (yes)

---

# System: K-562 leukemia
# ASSAY_SUMMARY: NCI tumour cell line growth inhibition, 48 h
RECORDED_METRIC: TGI

COMPOUND	TGI
NC(CSCSCC(N)C(=O)O)C(=O)O (configuration not stated)	> 225 µM
O=C(Cc1nc2ccccc2o1)C(=O)Nc1ccc(Cl)cc1Cl	> 100 µM
CON[N+]([O-])=NC(C)C	> 100 µM

For the compound `COC(=O)C1=CC(=O)[C@@H]2CCCC[C@H]12` , report TGI. > 100 µM

For the compound `Cn1c(=O)n(C2(C)CSC2)c2ccccc21` , report TGI. > 100 µM

---

# Tested on: HCT-116 colon
# ASSAY_SUMMARY: NCI tumour cell line growth inhibition, 48 h
// TGI lookup, one value per entry
The figure you give is taken to be in µM; do not add the unit.

Take a look at these entries with their results.
STRUCTURE_SMILES_STRING	UNIT_LABEL	TGI
COc1ccc(-c2cc(=O)c3cc(O)ccc3o2)c(OC)c1OC	µM	61.8
O[C@@]12Cc3c([nH]c4ccccc34)[C@@H]3Oc4c(-c5ccccc5)ccc5c4[C@@]31CCN(CC1CC1)[C@@H]2C5	µM	3.1
C#CCNC(=O)CC[C@@H](C)[C@H]1CC[C@H]2[C@@H]3CC[C@@H]4CC(=O)CC[C@]4(C)[C@H]3CC[C@]12C	µM	52

Continue with the next compound.
// fetch TGI; item: `CCCCOC(=O)c1c(C)[nH]c(/C=C2\N=C(c3ccc[nH]3)C=C2OC)c1C` ; system: HCT-116 colon 1.36

---

# Test system: HL-60(TB) leukemia
# ASSAY_SUMMARY: NCI tumour cell line growth inhibition, 48 h; in the data active = GI50 below about 0.43 µM; inactive = the rest
The categories you may choose from are active, inactive

Please review the entries below; each comes with its answer.
COMPOUND	CLASSIFICATION
Cn1c(=O)c(Oc2ccc(F)cc2F)cc2cnc(NCC(C)(C)O)nc21	inactive
CC(=O)ON=C1C=CC(=C(C#N)c2ccccc2)C=C1	inactive
O=C(Nc1cccc(-n2cc(-c3ccncc3)c(-c3ccc(Cl)c(O)c3)n2)c1)Nc1ccc(Cl)c(Cl)c1	inactive
CC(=O)Nc1cc2c3c(cccc3c1)-c1ccccc1-2	active
CCN(CC)CC(O)c1cc(-c2ccc(Cl)cc2)nc2c(C)c(Cl)ccc12 (configuration not stated)	inactive
Cc1cc(-c2cc(OC(=O)c3ccccc3)ccc2Cl)cc2nnc(Nc3ccc(OCCN4CCCC4)cc3)nc12	inactive
Nc1ncnc2c1ccn2-c1cccc(NC(=O)c2ccc(N3CCOCC3)c(C(F)(F)F)c2)c1	inactive
CC(=O)N[C@@H](Cc1ccc(OP(=O)(O)O)cc1)C(=O)N[C@H]1CCC(=O)N2CCC[C@@H](C(=O)NC3CCc4ccccc43)N2C1=O (some centres not stated)	inactive
C=CC(=O)N1CCC[C@@H](n2nc(-c3ccc(Oc4ccccc4)cc3)c3c(N)ncnc32)C1	inactive
COC(=O)c1cccc(NC(=O)c2ccc(NC3=C(Cl)C(=O)N(Cc4ccccc4)C3=O)cc2)c1	inactive

Now, please, on to the next compound.
Outcome? `CCCCOC(=O)c1c(C)[nH]c(/C=C2\N=C(c3ccc[nH]3)C=C2OC)c1C` inactive
